Assay: NCI Yeast Anticancer Drug Screen. Data for the sgs1 strain (AID 173);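 note: 0% = growth of vehicle-only control cultures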
Conditions: S. cerevisiae sgs1 mutant, at 1.2 µM, active compounds read high
This is part of a sample that, as a whole, favours compounds with a hit. Of some 79,000 tested, about 15% had one in any assay.
Property name: growth inhibition (%)
Give the quantity in %, number only.

Past entries and their recorded results:
Molecule: O=C1c2ccc(O)cc2C(=O)c2c(O)ccc(O)c21
growth inhibition / %: 3
//
Molecule: CCCCCCCCCCCCCCCCCN
growth inhibition / %: -46
//
Molecule: CCC(C)C(=O)OCC(=O)c1ccc(-c2ccccc2)cc1 (centres undefined)
growth inhibition / %: -1
//
Molecule: Cc1ccc2c(/C=C/c3ccc(N(C)C)cc3)ccnc2c1C
growth inhibition / %: -26
//
Molecule: O=c1oc(C(C(F)(F)F)C(F)(F)F)nc2ccccc12
growth inhibition / %: 26
//
Molecule: CNc1ccc2[nH]c3ccccc3c2c1
growth inhibition / %: 0
//
Molecule: CCC1SC(=S)N(c2ccc(Cl)cc2)C1=O (centres undefined)
growth inhibition / %: -8
//
Molecule: O=c1[nH]c(=O)n(CCCO)cc1F
growth inhibition / %: -27

Need growth inhibition, item Cc1cc(N(CCOS(C)(=O)=O)CCOS(C)(=O)=O)ccc1C=O
19

Find the recorded growth inhibition belonging to Cc1ccc(Nc2n[nH]c(=S)s2)cc1C and report it.
-28

Returns the measured growth inhibition for the input molecule. Input: C[Si](C)(C)Cc1ccccc1C(=O)O
-1

Entry OC1C#CCSCC#C/C=C\1 (centres undefined) has what growth inhibition?
20

Entry Nc1nc(Nc2ccccc2)nc(Nc2ccccc2)n1 : reported growth inhibition = ?
-10

Which growth inhibition value is on record for Cc1ccc(Cl)c2c(=O)c3ccccc3[nH]c12 ?
-2

Entry Cc1ccc(N(C=O)c2c([N+](=O)[O-])cc([N+](=O)[O-])c3c2=[N+]([O-])CN=3)cc1 has what growth inhibition?
16

So what does the record say about growth inhibition for Cc1[nH]nc(C(F)(F)F)c1N=NN(C)C ?
12

----------
Test: NCI Yeast Anticancer Drug Screen. Data for the CLN2oe strain (AID 163);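 note: 0% = growth of vehicle-only control cultures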
Settings: S. cerevisiae CLN2oe strain, at 11.0 µM
The panel holds about 79,000 compounds, 15% with a hit somewhere; the sample as a whole holds those more often. Calls of active or inactive are those of the source. No stated cut-off is given here; in the data, active means growth inhibition above about 70%; inactive means the rest.
Form entry, call: pick from active, inactive

Study these solved cases before continuing.
Compound: O=C1c2ccccc2C2CCC1c1ccccc12 (configuration not stated)
Qualitative label: inactive
//
Compound: c1ccc2cc(OCC3CO3)c(OCC3CO3)cc2c1 (configuration not stated)
Qualitative label: inactive
//
Compound: OC1C#CCSCC#C/C=C\1 (configuration not stated)
Qualitative label: inactive
//
Compound: CN1CCN(c2ccc3nc(-c4ccc5nc(-c6ccc(O)cc6)[nH]c5c4)[nH]c3c2)CC1
Qualitative label: active
//
Compound: CCOC(=O)C(NC(=O)c1ccccc1)[CH](c1ccccc1)[Sn]([c]1ccccc1)([c]1ccccc1)[c]1ccccc1 (configuration not stated)
Qualitative label: inactive

Hi team, can someone confirm the assay call for COc1ccc(CCN2C(=O)C=CC2=O)cc1OC ?
active

Assay outcome for O=S(=O)(CCC[C@H]1[C@@H](CCOCc2ccccc2)C2CCCN1O2)c1ccccc1 (some centres not stated) : what was it?
inactive

I would be grateful if you could indicate the recorded call for CC1=NN(C(=O)CC(=O)N(C(=O)c2ccccc2)c2ccc(Cl)cc2)C(=O)C1N=Nc1ccc([N+](=O)[O-])cc1 (configuration not stated) .
inactive

In this assay, the call recorded for Cc1cccc[c]1[Sn]([Cl])([S]/C(C#N)=N/N=C/c1ccc(N(C)C)cc1)[c]1ccccc1C was what?
inactive

GET /call?item= O=C(Cc1ccccc1F)NC1=C(Cl)C(=O)c2ccccc2C1=O returns the recorded outcome of this test.
inactive

Outcome logged for Cc1c2ccncc2c(C)c2c1oc1ccccc12 in this assay:
inactive

Entry CCCCCCCCCCCCOC1C(COCCN2CCCC2)OC2OC(C)(C)OC21 (configuration not stated) : call = ?
active

----------
Test: NCI Yeast Anticancer Drug Screen. Data for the mec2-1 strain (AID 157)
Settings: S. cerevisiae mec2-1 strain, at 5.0 µM (retest, dose inferred, filed as 0.5), active compounds read high
The panel holds about 79,000 compounds, 15% with a hit somewhere; the sample as a whole holds those more often.
Property name: growth inhibition (%)
Numbers only; they are read as %.

Compound: O=Cc1ccccc1B(O)O
Property name: growth inhibition
Value observed: -25

Compound: O=C1C=CC(=Nc2ccc3c(c2)Cc2cc(Cl)ccc2-3)O1
Property name: growth inhibition
Value observed: 34

Compound: CNc1ccc2[nH]c3ccccc3c2c1
Property name: growth inhibition
Value observed: -1

Which growth inhibition value is on record for Nc1cccc2cc(Cl)cnc12 ?
53

Form field: reported growth inhibition of O=c1[nH]c(=O)n(CCCO)cc1F
24

// growth inhibition lookup, key: CCOC(=O)C1=C(C)NC(C)=C(C(=O)OCC)C1c1ccc(Cl)cc1
99

# get_value(readout='growth inhibition', item= CCCCOc1ccc(Nc2c3ccccc3nc3ccccc23)cc1 )
12

Suppose we examine the compound CC(=O)c1ccc(NCN2C(=O)c3ccccc3C2=O)cc1 ; what growth inhibition value has been reported?
51

Recorded growth inhibition of O=C(Cc1ccccc1)c1ccc(O)cc1 , please.
78

Report growth inhibition for CCN(CC)c1cccc(Nc2nc3ccccc3s2)c1 please.
-5

Can you share its growth inhibition? I mean this compound: O=CC(=C(I)I)c1ccccc1
33

// returns reported growth inhibition for input N=C(N)c1ccc(N=Nc2c(O)ccc3c2[nH]c2ccccc23)cc1
15

I'd like to know its growth inhibition. The compound in question is CCCC(=O)OC(OC(=O)CCC)c1ccc([N+](=O)[O-])o1
17

For the compound COc1ccc(C(=O)NCCN(C)C)c2nc3ccccc3cc12 , what growth inhibition is on record?
14

Quick one: growth inhibition of O=C1C=CC(=O)N1c1ccc(Br)cc1Cl ?
44

For CN(NC(=O)/C(=C/C=C/c1ccccc1)NC(=O)c1ccccc1)C1=C(Cl)C(=O)[N+](c2ccccc2)=CC1 , what is its reported growth inhibition?
-12

----------
Experiment: NCI Yeast Anticancer Drug Screen. Data for the bub3 strain (AID 167)
Details: S. cerevisiae bub3 mutant strain, at 3.7 µM
The panel holds about 79,000 compounds, 15% with a hit somewhere; the sample as a whole holds those more often. The source made the active and inactive calls. Rule as the data show it: active = growth inhibition above about 70%; inactive = the rest.
# valid calls are y (active), n (inactive); nothing else

Molecule: [O-]c1c2cc(-[n+]3c(-c4ccccc4)cc(-c4ccccc4)cc3-c3ccccc3)cc1COCCOCCOCCOCCOC2
Qualitative label: n

Molecule: CC1=Cc2ccc(C)cc2C(=O)C1=O
Qualitative label: n

What call does the record list for O=C1OC(/C=C/c2ccccc2)Sc2ccccc21 (stereo unspecified) ?
n

Recorded test outcome, item CN(C)CCNC(=O)c1cccc2nc3c(ccc4ccccc43)nc12
n

Status in this test for Cc1nc2ccc(Br)cc2c(=O)n1-c1ccc(NC2OCC(O)C(O)C2O)cc1 (stereo unspecified) ?
n

Record request — test call for CC(C)OC(CCC#N)c1ccc(Cl)cc1 (stereo unspecified)
n

Hi, do you know how O=S(=O)(O)c1ccc2c(N=Nc3c(O)ccc4ccccc34)cccc2c1 came out in this test?
n

Hi team, can someone confirm the assay call for S=C1NC2=C(CSC/C2=C\c2ccc(Cl)cc2)C(c2ccc(Cl)cc2)N1 (stereo unspecified) ?
n

----------
Assay: NCI Yeast Anticancer Drug Screen. Data for the rad50 strain (AID 155);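 note: 0% = growth of vehicle-only cultures of the same strain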
Conditions: S. cerevisiae rad50 strain growth inhibition; at 100.0 µM; active compounds read high
The panel holds about 79,000 compounds, 15% with a hit somewhere; the sample as a whole holds those more often.
The compounds listed here are annotated with their growth inhibition.
Just the number in %, nothing appended.

Previously resolved entries follow.
Compound: NNc1nnc(-c2ccccc2)nc1Cc1ccccc1
growth inhibition, %: 93
//
Compound: C=Cc1c(C)c(O)cc2c1-c1ccc(O)c(C)c1CC2
growth inhibition, %: 99
//
Compound: Nc1c([N+](=O)[O-])cc2c3c(cccc13)CC2
growth inhibition, %: 83
//
Compound: CCOc1ccccc1N1C(=O)CC(Sc2ccccc2N)C1=O (centres undefined)
growth inhibition, %: -20
//
Compound: Cc1cc(NCCCN(C)C)c2ccc3c(ccc4c(NCCCN(C)C)cc(C)nc43)c2n1
growth inhibition, %: 59

I have this compound here, Cc1cnc(/C=N\NC(N)=S)c2cccc(N)c12 , and I need its recorded growth inhibition.
83

Any idea what its growth inhibition is? The compound is CN(Cc1cccc2ccccc12)Cc1cccc2ccccc12
9

Need growth inhibition, item O=S(=O)(Oc1c(Cl)cc(Cl)cc1Cl)c1ccccc1
14

Suppose we examine the compound CCCC(=O)OC(OC(=O)CCC)c1ccc([N+](=O)[O-])o1 ; what growth inhibition value has been reported?
83

----------
Experiment: NCI Yeast Anticancer Drug Screen. Data for the wt1 strain (AID 149);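 note: 0% = growth of vehicle-treated wt1 cultures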
Details: S. cerevisiae wt1 strain (SPY 50644) growth inhibition; at 33.0 µM; active compounds read high
This is part of a sample that, as a whole, favours compounds with a hit. Of some 79,000 tested, about 15% had one in any assay.
Listed next: entries and their corresponding growth inhibition.
Note: unit % is implicit; provide only the numeric part.

Compound: CCC(C)C(=O)OCC(=O)c1ccc(-c2ccccc2)cc1 (stereo not drawn)
Property name: growth inhibition
Measurement units: %
Value observed: -5
--
Compound: CC1=NN(C(=O)CC(=O)N(C(=O)c2ccccc2)c2ccc(Cl)cc2)C(=O)C1N=Nc1ccc([N+](=O)[O-])cc1 (stereo not drawn)
Property name: growth inhibition
Measurement units: %
Value observed: 26

I would be grateful if you could share the reported growth inhibition for O=S(=O)(Oc1c(Cl)cc(Cl)cc1Cl)c1ccccc1 .
-11

Which growth inhibition is reported for this compound? CC1(C)CC(=O)C(C(CC(c2ccccc2)c2cc3c(cc2O)OCO3)C2=C(O)CC(C)(C)CC2=O)=C(O)C1 (stereo not drawn)
75

# input compound: O=C1c2ccccc2-c2ccc(NC(=O)C3CCCCC3C(=O)O)cc21 (stereo not drawn) ; wanted: its growth inhibition
7

I would be grateful if you could share the reported growth inhibition for O=[N+]([O-])c1ccc2nnnn2c1 .
11

Given the compound Cc1ccc(P(c2ccc(C)cc2)c2ccc(C)cc2)cc1 , what is its reported growth inhibition?
1

# growth inhibition lookup, item O=C1C(C(O)(C(F)(F)F)C(F)(F)F)CCC1C(O)(C(F)(F)F)C(F)(F)F (stereo not drawn)
19

Data request, read-out growth inhibition, for CCc1nc2ccc(N=Nc3c(O)ccc4ccccc34)cc2[nH]1
30

What does the record list as growth inhibition for CC[N+]1(C)CCC(O)(/C=C/c2ccc(Cl)c(Cl)c2)C(C(=O)/C=C/c2ccc(Cl)c(Cl)c2)C1 (stereo not drawn) ?
99

State the recorded growth inhibition for this entry: CC(O)CN1C(=O)c2cccc3cc([N+](=O)[O-])cc(c23)C1=O (stereo not drawn)
-3

Requested read-out: growth inhibition. Entry: CCOC(=O)C1=C(C)NC(C)=C(C(=O)OCC)C1c1ccc(Cl)cc1
60

Returns the measured growth inhibition for the input compound. Input: [O-]c1c2cc(-[n+]3c(-c4ccccc4)cc(-c4ccccc4)cc3-c3ccccc3)cc1COCCOCCOCCOCCOC2
-7

Return reported growth inhibition; argument: CN(C)CCNC(=O)c1cccc2nc3c(ccc4ccccc43)nc12
17

I am curious: what growth inhibition value has been reported for Cc1nc2ccc(Br)cc2c(=O)n1-c1ccc(NC2OCC(O)C(O)C2O)cc1 (stereo not drawn) ?
32

Which growth inhibition reading was recorded for the compound CCOC(=O)C1=C(C)NC(C)=C(C(=O)OCC)C1c1cccc([N+](=O)[O-])c1 ?
37

Can you share its growth inhibition? I mean this compound: [Cl][Pt+2][Cl].[NH-]CC1(C[NH-])CCCCC1
99
